Assay: chemical genetic growth profiling, strain panel (AID 1159580);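 note: tested at 20 µM; growth read once vehicle control cultures reached saturation at 30 °C; 1 = growth at the plate median or of vehicle wells; lower values mean less growth of the strain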
Condition set: S. cerevisiae deletion strains, growth OD, locus YLR371W, strain rom2, stronger effect = lower value
About 2,000 (36%) of roughly 5,500 compounds were called active. Roughly 18% stayed inconclusive and do not appear here. Some of the results follow.
# normalized growth per entry
Output: the number by itself.

Take a look at these entries with their results.
                                   compound          parameter  number
0  CCCCC(=O)N(Cc1ccc(-c2ccccc2-c2nn[nH]n2)cc1)[C@H](C(=O)O)C(C)C  normalized growth   0.977
1  CCOc1nc2cccc(C(=O)OC(C)OC(=O)OC3CCCCC3)c2n1Cc1ccc(-c2ccccc2-c2nn[nH]n2)cc1 (centres undefined)  normalized growth   0.997
2  O=c1[nH]c2ccccc2n1C1CCN(CCCC(c2ccc(F)cc2)c2ccc(F)cc2)CC1  normalized growth   0.989
3  O=C(CCCN1CC=C(n2c(=O)[nH]c3ccccc32)CC1)c1ccc(F)cc1  normalized growth   0.949
4            C=C(C)c1cc2cc(C(C)=O)c(O)cc2o1  normalized growth   0.776

Give the measured normalized growth of `O=c1cc(-c2ccc(O)cc2)oc2cc(O[C@@H]3O[C@H](CO)[C@@H](O)[C@H](O)[C@H]3O[C@@H]3OC[C@](O)(CO)[C@H]3O)cc(O)c12` .
0.985

Give the measured normalized growth of CC(C)(O)CC[C@@H](O)[C@](C)(O)C1CC[C@@]2(O)C3=CC(=O)C4C[C@@H](O)[C@@H](O)C[C@]4(C)C3CC[C@]12C (some centres undefined) .
0.99

Give the measured normalized growth of `CCCc1nc(C(C)(C)O)c(C(=O)OCc2oc(=O)oc2C)n1Cc1ccc(-c2ccccc2-c2nn[nH]n2)cc1` .
0.985

Give the measured normalized growth of `CCS(=O)(=O)CCn1c([N+](=O)[O-])cnc1C` .
1.01

---

Assay: chemical genetic growth profiling, strain panel (AID 1159580);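 note: tested at 20 µM; growth read once vehicle control cultures reached saturation at 30 °C; 1 = growth at the plate median or of vehicle wells; lower values mean less growth of the strain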
Condition set: S. cerevisiae deletion strains, growth OD, locus YJL187C, strain SWE1, stronger effect = lower value
The whole screen tested about 5,500 compounds, of which about 2,000 (36%) were called active. Inconclusive results (about 18%) are left out. The list shows a part of the results.
# normalized growth per entry
Output: the number by itself.

>>> print(df.to_string())
                                   compound          parameter  number
0  CCOc1nc2cccc(C(=O)OC(C)OC(=O)OC3CCCCC3)c2n1Cc1ccc(-c2ccccc2-c2nn[nH]n2)cc1 (stereo not given)  normalized growth    1.01

Give the measured normalized growth of CC(C)(O)CC[C@@H](O)[C@](C)(O)C1CC[C@@]2(O)C3=CC(=O)C4C[C@@H](O)[C@@H](O)C[C@]4(C)C3CC[C@]12C (stereo not given in full) .
1.02

Give the measured normalized growth of `COc1ccccc1N1CCN(S(=O)(=O)c2ccc(C(F)(F)F)cc2)CC1` .
0.985

---

Assay: chemical genetic growth profiling, strain panel (AID 1159580);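 note: tested at 20 µM; growth read once vehicle control cultures reached saturation at 30 °C; 1 = growth at the plate median or of vehicle wells; lower values mean less growth of the strain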
Condition set: S. cerevisiae deletion strains, growth OD, locus YJL187C, strain SWE1 (second series), stronger effect = lower value
Out of some 5,500 compounds screened, about 2,000 (36%) were called active. Inconclusive results (about 18%) are left out. The list shows a part of the results.
Parameter: normalized growth
Output: the number by itself.

                      molecule  number
0  CN(C)c1nc(N(C)C)nc(N(C)C)n1       1

// moving on: another record for normalized growth
Give the measured normalized growth of `Cc1cc(C)nc(NS(=O)(=O)c2ccc(N)cc2)n1` .
0.987
